Assay summary: Pharmacokinetics in female rats, intravenous and intravaginal
Format: in vivo, rat
Experimental conditions: female, rat, plasma; IV: single dose 30 mg/kg; read-out: Vdss
Experimental: Female rats (n=6) were administered with 30 mg of compound per kg in a single I.V. dose in saline or intravaginally, BID, for 5 days, formulated in KY jelly. The selected single dose represented 10 times the estimated human dose (250 mg). […] Following intravenous administration, relatively high concentrations of suramin sodium (mean value=563 μg/mL) were measured in plasma at 1 hour (first time-point) following the onset of dosing. […] The mean volume of distribution was calculated at 147 mL/kg.
Observable: Vd (L/kg)
Give just the numeric value; L/kg need not be written.

Data request: Give the measured Vd of Cc1ccc(C(=O)Nc2ccc(S(=O)(=O)O)c3cc(S(=O)(=O)O)cc(S(=O)(=O)O)c23)cc1NC(=O)c1cccc(NC(=O)Nc2cccc(C(=O)Nc3cc(C(=O)Nc4ccc(S(=O)(=O)O)c5cc(S(=O)(=O)O)cc(S(=O)(=O)O)c45)ccc3C)c2)c1 .
Data returned: 0.147

---

Assay summary: Pharmacokinetics in female rats, intravenous and intravaginal
Format: in vivo, rat
Experimental conditions: female, rat, plasma; IVag: 30 mg/kg BID for 5 days; read-out: Vdss
Observable: Vd (L/kg)
Give just the numeric value; L/kg need not be written.

Data request: Give the measured Vd of Cc1ccc(C(=O)Nc2ccc(S(=O)(=O)O)c3cc(S(=O)(=O)O)cc(S(=O)(=O)O)c23)cc1NC(=O)c1cccc(NC(=O)Nc2cccc(C(=O)Nc3cc(C(=O)Nc4ccc(S(=O)(=O)O)c5cc(S(=O)(=O)O)cc(S(=O)(=O)O)c45)ccc3C)c2)c1 .
Data returned: 0.132

---

Assay summary: Pharmacokinetics in female rats, intravenous and intravaginal
Assay type: in vivo, rat
Experimental conditions: female, rat, plasma; IV: single intravenous dose of 30 mg/kg; at 1 hour
Observable: Cmax (µg/mL)
Give just the numeric value; µg/mL need not be written.

Data request: Give the measured Cmax of Cc1ccc(C(=O)Nc2ccc(S(=O)(=O)O)c3cc(S(=O)(=O)O)cc(S(=O)(=O)O)c23)cc1NC(=O)c1cccc(NC(=O)Nc2cccc(C(=O)Nc3cc(C(=O)Nc4ccc(S(=O)(=O)O)c5cc(S(=O)(=O)O)cc(S(=O)(=O)O)c45)ccc3C)c2)c1 [Suramin] .
Data returned: 563

---

Assay summary: Pharmacokinetics in female rats, intravenous and intravaginal
Type: in vivo, rat
Experimental conditions: female, rat, plasma, iv, 30 mg/kg, IV: single dose 30 mg/kg; zero to infinity; read-out: AUC(I)
Observable: AUC (µg·h/mL)
Give just the numeric value; µg·h/mL need not be written.

Data request: Give the measured AUC of Cc1ccc(C(=O)Nc2ccc(S(=O)(=O)O)c3cc(S(=O)(=O)O)cc(S(=O)(=O)O)c23)cc1NC(=O)c1cccc(NC(=O)Nc2cccc(C(=O)Nc3cc(C(=O)Nc4ccc(S(=O)(=O)O)c5cc(S(=O)(=O)O)cc(S(=O)(=O)O)c45)ccc3C)c2)c1 .
Data returned: 17300

---

Assay summary: Pharmacokinetics in female rats, intravenous and intravaginal
Assay type: in vivo, rat
Experimental conditions: female, rat, plasma, 90 mg, calculated from the total dose (90 mg) administered intravaginally; read-out: bioavailability after intravaginal administration
Observable: bioavailability (%)
Give just the numeric value; % need not be written.

Data request: Give the measured bioavailability of Cc1ccc(C(=O)Nc2ccc(S(=O)(=O)O)c3cc(S(=O)(=O)O)cc(S(=O)(=O)O)c23)cc1NC(=O)c1cccc(NC(=O)Nc2cccc(C(=O)Nc3cc(C(=O)Nc4ccc(S(=O)(=O)O)c5cc(S(=O)(=O)O)cc(S(=O)(=O)O)c45)ccc3C)c2)c1 [Suramin] .
Data returned: 0.8

Numbers sourced from patent US8552064B2.
